# key: entry, value: IC50
Target: Replicase polyprotein 1a (Severe acute respiratory syndrome-related coronavirus)
Experiment: Inhibition of SARS-CoV 3CLpro expressed in Escherichia coli BL21 (DE3) by FRET assay
Measure: IC50 (µM)

1) CC(C)(C)NC(=O)C(c1cccnc1)N(C(=O)c1ccc(Cl)o1)c1ccc(C(C)(C)C)cc1 (centres undefined)	5.2
2) C=C(Cc1cccc(C)c1)C1=CC=C(c2ccc(C)cc2)C1	13
3) CCC(C)c1ccc(N(C(=O)c2ccco2)C(C(=O)NC2CCCC2)c2cccnc2)cc1 (centres undefined)	2.2
4) CC(C)(C)NC(=O)C(c1cccnc1)N(C(=O)c1ncco1)c1ccc(C(C)(C)C)cc1 (centres undefined)	47
5) CC(C)(C)NC(=O)C(c1cccnc1)N(C(=O)c1cnco1)c1ccc(C(C)(C)C)cc1 (centres undefined)	39
6) CC(C)(C)NC(=O)C(c1ccnnc1)N(C(=O)c1ccco1)c1ccc(C(C)(C)C)cc1 (centres undefined)	10
7) CC(C)(C)NC(=O)C(c1cnccn1)N(C(=O)c1ccco1)c1ccc(C(C)(C)C)cc1 (centres undefined)	5.5
8) CC(C)(C)NC(=O)C(c1ccncc1)N(C(=O)c1ccco1)c1ccc(C(C)(C)C)cc1 (centres undefined)	45
9) CCN(CC)c1ccc(C(=O)On2nnc3ccccc32)cc1	11.1

###

Assay: Cytotoxicity against african green monkey Vero E6 cells after 48 hrs by CellTiter-Glo luminescent cell viability assay
Format: cell-based
Conditions: chlorocebus sabaeus
Measure: CC90 at 48 h (µM)

1. CN(C)CCCSc1ccccc1NC(=O)/C=C/c1ccccc1	66

###

Target: Replicase polyprotein 1a (Severe acute respiratory syndrome-related coronavirus) (UniProt P0C6U8)
Assay: Inhibition of SARS-CoV 3CLpro expressed in Escherichia coli BL21 (DE3) at 100 uM by FRET assay in presence of 0.01% Triton X-100
Measure: inhibition

1. CC(C)CC(=O)N(c1ccc(C(C)(C)C)cc1)C(C(=O)NC(C)(C)C)c1cccnc1 (centres undefined)	> 49%
2. COc1cccc(C(=O)N(c2ccc(C(C)(C)C)cc2)C(C(=O)NC(C)(C)C)c2cccnc2)c1 (centres undefined)	> 49%
3. Cc1ccc(C(=O)N(c2ccc(C(C)(C)C)cc2)C(C(=O)NC(C)(C)C)c2cccnc2)o1 (centres undefined)	55%
4. CC(C)(C)NC(=O)C(c1cccnc1)N(C(=O)Cc1ccccc1)c1ccc(C(C)(C)C)cc1 (centres undefined)	> 49%
5. CC(C)(C)NC(=O)C(c1cccnc1)N(C(=O)c1cn[nH]c1)c1ccc(C(C)(C)C)cc1 (centres undefined)	> 49%
6. CC(C)(C)NC(=O)C(c1cccnc1)N(C(=O)c1cccnc1)c1ccc(C(C)(C)C)cc1 (centres undefined)	> 49%
7. CC(C)(C)NC(=O)C(c1cccnc1)N(C(=O)C1CCCO1)c1ccc(C(C)(C)C)cc1 (centres undefined)	> 49%
8. CC(C)(C)NC(=O)C(c1cccnc1)N(C(=O)c1ccc(O)cc1)c1ccc(C(C)(C)C)cc1 (centres undefined)	> 49%
9. CC(C)(C)NC(=O)C(c1c[nH]nn1)N(C(=O)c1ccco1)c1ccc(C(C)(C)C)cc1 (centres undefined)	23%

###

Target: Replicase polyprotein 1a (Severe acute respiratory syndrome-related coronavirus, UniProt P0C6U8)
Assay: Inhibition of SARS-CoV 3CLpro expressed in Escherichia coli BL21 (DE3) by FRET assay
# key: entry, value: IC50
Measure: IC50 (µM)

1. CC(C)(C)NC(=O)C(c1cccnc1)N(C(=O)c1cccs1)c1ccc(C(C)(C)C)cc1 (stereo not given)	50
2. CC(C)(C)NC(=O)C(c1cccnc1)N(C(=O)C1=NC=NC1)c1ccc(C(C)(C)C)cc1 (stereo not given)	6
3. O=C(Oc1cncc(Br)c1)c1cccs1	0.5
4. CC(C)c1ccc(N(C(=O)c2ccco2)C(C(=O)NC(C)(C)C)c2cccnc2)cc1 (stereo not given)	28.1
5. Cn1cnc(C(=O)N(c2ccc(C(C)(C)C)cc2)C(C(=O)NC(C)(C)C)c2cccnc2)c1 (stereo not given)	75
